In this section we review reported solubility kinetic at 16 h values for a set of molecules.
- ASSAY: Solubility test
- Format: physicochemical
- EXPERIMENTAL_SETUP: JP 1st fluid, 25 °C, pH 1.2, simulated gastric fluid, kinetic from dmso stock; read-out: JP1

{"MOLECULE": "C[C@]1(c2cc(NC(=O)c3ccc(F)cn3)ccc2F)N=C(N)OCC12CC(F)(F)C2 [Compound I-45]", "UNITS": "µM", "LIMIT_SIGN": "=", "solubility kinetic at 16 h": 35.8}
{"MOLECULE": "C[C@H]1SC(N)=N[C@](C)(c2nc(NC(=O)c3ccc(C#N)cn3)ccc2F)[C@H]1F [Compound I-1]", "UNITS": "µM", "LIMIT_SIGN": ">", "solubility kinetic at 16 h": 50}
{"MOLECULE": "CO[C@H]1[C@@H](CF)OC(N)=N[C@]1(C)c1cc(NC(=O)c2ccc(Cl)cn2)ccc1Cl [Compound I-21]", "UNITS": "µM", "LIMIT_SIGN": "=", "solubility kinetic at 16 h": 28.8}
{"MOLECULE": "Cc1nc(C(=O)Nc2ccc(F)c([C@@]3(C)N=C(N)O[C@H](C(F)(F)F)[C@@H]3C)c2)co1 [Compound I-32]", "UNITS": "µM", "LIMIT_SIGN": ">", "solubility kinetic at 16 h": 50}
{"MOLECULE": "C[C@H]1SC(N)=N[C@](C)(c2nc(NC(=O)c3ccc(F)cn3)ccc2F)[C@H]1F [Compound I-2]", "UNITS": "µM", "LIMIT_SIGN": "=", "solubility kinetic at 16 h": 23.3}
{"MOLECULE": "C[C@H]1SC(N)=N[C@](C)(c2cc(NC(=O)c3ccc(F)cn3)ccc2F)[C@H]1F [Compound I-116]", "UNITS": "µM", "LIMIT_SIGN": ">", "solubility kinetic at 16 h": 50}
{"MOLECULE": "C[C@@]1(c2cc(NC(=O)c3ccc(C#N)cn3)ccc2F)C[C@@](C)(C(F)(F)F)OC(N)=N1 [Compound I-7]", "UNITS": "µM", "LIMIT_SIGN": ">", "solubility kinetic at 16 h": 50}
